assay: Lipophilicity via RP-HPLC; assay type: physicochemical; conditions: C8 column
measurement kind: ϕ0
// no unit string in output, number only

// query Given the compound O=C(O)c1ccc(O)cc1O [2,4-DHB, 2,4-Dihydroxybenzoic acid] , write its reported ϕ0.
// result 1.38

// query Given the compound O=C(O)c1ccc(O)c(O)c1 [3,4-DHB, 3,4-dihydroxybenzoic acid] , write its reported ϕ0.
// result 0.83

// query Given the compound O=C(O)c1cc(O)cc(O)c1 [3,5-DHB, 3,5-dihydroxybenzoic acid] , write its reported ϕ0.
// result 0.83

* * *

Each record here notes measured MIC.
test system: Escherichia coli (PCM 2857); test: MIC by serial dilution in agar medium; type: cell-based; details: read-out: MIC
Just the number please, in µg/mL, no unit attached.

O=C(O)c1c(O)cccc1O [2,6-DHB, 2,6-dihydroxybenzoic acid]
3000
O=C(O)c1cc(O)c(O)c(O)c1 [3,4,5-THB, 3,4,5-trihydroxybenzoic acid]
3000

// query Given the compound O=C(O)c1ccc(O)cc1O [2,4-DHB, 2,4-Dihydroxybenzoic acid] , write its reported MIC.
// result 2000

// query Given the compound O=C(O)c1cc(O)ccc1O [2,5-DHB, 2,5-dihydroxybenzoic acid] , write its reported MIC.
// result 3000

// query Given the compound O=C(O)c1cccc(O)c1O [2,3-DHB, 2,3-Dihydroxybenzoic acid] , write its reported MIC.
// result 5000

// query Given the compound O=C(O)c1cc(O)cc(O)c1 [3,5-DHB, 3,5-dihydroxybenzoic acid] , write its reported MIC.
// result 2000
